Source listed as ChEMBL document CHEMBL4196169.

What bioavailability was measured for each of the following?
method: Oral bioavailability in mouse at 10 mg/kg administered as suspensions
Assay type: ADME, organism-based
assay.conditions: in vivo
Give just the number in %; leave the unit off.

Suppose we examine the compound O=C(Nc1ccc(OC(F)(F)F)cc1)c1cccc(-c2cncnc2)c1 ; what bioavailability value has been reported?
0.8

Record: O=C(Nc1ccc(OC(F)(F)F)cc1)c1cnc(N2CCC(O)C2)c(-c2cncnc2)c1 (single isomer, unassigned; 7)
76

* * *

measured.on: Voltage-gated inwardly rectifying potassium channel KCNH2 (Homo sapiens, UniProt Q12809)
Sequence (Q12809 whole entry): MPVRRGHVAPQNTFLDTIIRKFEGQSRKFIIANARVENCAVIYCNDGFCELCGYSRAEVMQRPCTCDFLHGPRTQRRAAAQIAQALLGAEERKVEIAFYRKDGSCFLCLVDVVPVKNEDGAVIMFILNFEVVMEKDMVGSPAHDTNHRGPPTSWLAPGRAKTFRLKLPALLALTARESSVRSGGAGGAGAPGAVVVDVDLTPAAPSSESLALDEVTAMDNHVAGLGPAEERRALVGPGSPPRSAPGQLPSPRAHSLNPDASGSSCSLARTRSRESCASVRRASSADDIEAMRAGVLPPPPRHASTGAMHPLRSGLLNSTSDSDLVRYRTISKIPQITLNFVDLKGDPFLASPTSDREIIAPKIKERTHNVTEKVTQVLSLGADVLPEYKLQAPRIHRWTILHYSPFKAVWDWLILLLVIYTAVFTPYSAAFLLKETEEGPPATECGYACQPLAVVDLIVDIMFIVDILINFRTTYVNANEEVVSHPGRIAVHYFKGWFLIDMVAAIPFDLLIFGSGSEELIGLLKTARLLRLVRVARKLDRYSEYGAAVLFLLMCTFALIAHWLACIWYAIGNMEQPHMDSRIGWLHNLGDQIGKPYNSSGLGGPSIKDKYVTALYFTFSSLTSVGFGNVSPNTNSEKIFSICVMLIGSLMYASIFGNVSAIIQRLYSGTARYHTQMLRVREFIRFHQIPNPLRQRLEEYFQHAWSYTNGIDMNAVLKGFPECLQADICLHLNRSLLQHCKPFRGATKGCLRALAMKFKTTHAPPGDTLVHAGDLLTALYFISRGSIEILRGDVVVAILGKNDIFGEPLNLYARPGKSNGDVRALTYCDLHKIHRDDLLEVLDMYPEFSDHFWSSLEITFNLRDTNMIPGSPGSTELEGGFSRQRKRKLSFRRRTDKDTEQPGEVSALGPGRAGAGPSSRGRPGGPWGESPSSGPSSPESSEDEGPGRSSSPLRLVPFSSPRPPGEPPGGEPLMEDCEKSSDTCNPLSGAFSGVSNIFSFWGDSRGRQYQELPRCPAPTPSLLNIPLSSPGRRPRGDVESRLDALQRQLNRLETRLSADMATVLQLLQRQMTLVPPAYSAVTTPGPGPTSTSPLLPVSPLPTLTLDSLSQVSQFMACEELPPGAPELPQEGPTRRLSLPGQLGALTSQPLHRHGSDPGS
method: Displacement of [3H]dofetilide from human ERG by high throughput assay
property.label: IC50

Suppose we examine the compound O=C(Nc1ccc(OC(F)(F)F)cc1)c1cncc(-c2cncnc2)c1 ; what IC50 value has been reported?
> 30 µM

Record: O=C(Nc1ccc(OC(F)(F)F)cc1)c1cccc(-c2cncnc2)c1
> 10 µM

Record: C[C@@]1(O)CCN(c2ncc(C(=O)Nc3ccc(OC(F)(F)F)cc3)cc2-c2ccn[nH]2)C1
> 30 µM
